- subject.of.test: human TLR7 (Homo sapiens, UniProt Q9NYK1)
- Sequence (Q9NYK1 27-1049): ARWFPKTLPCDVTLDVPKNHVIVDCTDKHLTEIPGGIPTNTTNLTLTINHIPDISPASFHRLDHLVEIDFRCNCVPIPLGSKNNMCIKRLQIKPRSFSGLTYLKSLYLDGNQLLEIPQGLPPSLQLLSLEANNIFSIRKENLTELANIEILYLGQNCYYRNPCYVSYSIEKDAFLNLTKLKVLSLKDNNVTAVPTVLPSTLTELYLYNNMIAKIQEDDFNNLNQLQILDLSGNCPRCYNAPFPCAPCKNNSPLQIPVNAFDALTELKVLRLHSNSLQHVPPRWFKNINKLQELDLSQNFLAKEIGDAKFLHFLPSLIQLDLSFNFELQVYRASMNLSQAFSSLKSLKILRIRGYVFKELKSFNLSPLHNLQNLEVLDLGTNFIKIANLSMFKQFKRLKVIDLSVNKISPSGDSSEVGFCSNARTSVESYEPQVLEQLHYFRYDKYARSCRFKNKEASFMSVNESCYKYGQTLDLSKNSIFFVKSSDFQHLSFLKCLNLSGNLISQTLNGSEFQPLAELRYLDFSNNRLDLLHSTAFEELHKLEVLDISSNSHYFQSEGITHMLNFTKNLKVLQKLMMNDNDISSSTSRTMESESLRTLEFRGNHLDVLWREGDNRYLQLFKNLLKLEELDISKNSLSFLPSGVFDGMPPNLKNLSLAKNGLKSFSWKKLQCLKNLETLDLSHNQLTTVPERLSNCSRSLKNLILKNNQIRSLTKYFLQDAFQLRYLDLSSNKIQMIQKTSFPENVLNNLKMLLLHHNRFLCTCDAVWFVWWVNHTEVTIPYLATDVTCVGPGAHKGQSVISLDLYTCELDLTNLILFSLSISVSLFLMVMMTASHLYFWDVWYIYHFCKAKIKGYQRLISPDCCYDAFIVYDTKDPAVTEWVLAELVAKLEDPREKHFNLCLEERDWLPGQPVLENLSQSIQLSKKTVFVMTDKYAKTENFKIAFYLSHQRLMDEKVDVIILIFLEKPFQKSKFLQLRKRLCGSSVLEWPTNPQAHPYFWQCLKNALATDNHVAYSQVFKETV
- assay.text: TLR7 inhibition reporter assay (HEK-Blue SEAP)
- measurement.parameters: HEK-Blue cells overexpressing human TLR7, stimulated with gardiquimod 7.5 μM, 22 hour incubation
pIC50: −log10 of the molar value.
Assign 1 to entries whose pIC50 meets or exceeds 8; assign -1 to the rest.

{"compound": "Cc1cc2c(C3CCCN(CC(=O)N(C)C)C3)n[nH]c2cc1-c1cc(C)c2ncnn2c1 (centres unmarked) [Example 41]", "cat": -1}
{"compound": "Cc1cc(-c2cc3[nH]nc(C4CCC(N5CC6(C5)CS(=O)(=O)C6)CC4)c3cc2C(C)C)cn2ncnc12 (single isomer, unassigned) [Example 142]", "cat": 1}
{"compound": "COc1cc(-c2cc(C)c3c(OC4CCC(N(C)C)CC4)n[nH]c3c2)cn2ncnc12 (single isomer, unassigned) [Example 183]", "cat": 1}
{"compound": "CCc1cc2c(C3CCN(CC(C)(C)O)CC3)n[nH]c2cc1-c1cc(C)c2ncnn2c1", "cat": 1}
{"compound": "Cc1cc(-c2cc(C)c3ncnn3c2)cc2[nH]nc(OC3CCC(NCCS(C)(=O)=O)CC3)c12 (centres unmarked) [Example 188]", "cat": 1}
{"compound": "Cc1cc(-c2cc(C)c3ncnn3c2)cc2[nH]ncc12", "cat": -1}
{"compound": "CCc1cc2c(C3CCN(C(C)C)CC3)n[nH]c2cc1-c1cc(C)c2ncnn2c1", "cat": 1}
{"compound": "Cc1cc2c(C3CCN(CCNS(C)(=O)=O)CC3)n[nH]c2cc1-c1cc(C)c2ncnn2c1", "cat": -1}
{"compound": "Cc1cc(-c2cc(C)c3ncnn3c2)cc2[nH]nc(C3CCCN(C4CCOCC4)C3)c12 (centres unmarked)", "cat": -1}
{"compound": "Cc1cc(-c2cc(C)c3ncnn3c2)cc2[nH]nc(OC3CCNCC3)c12", "cat": 1}
{"compound": "Cc1cc(-c2cc(C)c3ncnn3c2)cc2[nH]cc(C3CCNCC3)c12 [Example 16]", "cat": 1}
{"compound": "CCc1cc2c(C3CCN(CC(=O)N(C)C)CC3)n[nH]c2cc1-c1cc(C)c2ncnn2c1", "cat": 1}
{"compound": "Cc1cc(-c2cc3[nH]nc(C4CCCNC4)c3cc2C)cc(C)n1 (centres unmarked)", "cat": -1}
{"compound": "Cc1cc(-c2cc3[nH]nc(C4CCC(N5CC6(C5)CS(=O)(=O)C6)CC4)c3cc2C(C)C)cn2ncnc12 (single isomer, unassigned) [Example 143]", "cat": 1}
{"compound": "Cc1cc2c(C3CC(N(C)C)C3)n[nH]c2cc1-c1cc(C)c2ncnn2c1 (single isomer, unassigned) [Example 7]", "cat": -1}

----------
- subject.of.test: human TLR9 (Homo sapiens, UniProt Q9NR96)
- Sequence (Q9NR96 26-1032): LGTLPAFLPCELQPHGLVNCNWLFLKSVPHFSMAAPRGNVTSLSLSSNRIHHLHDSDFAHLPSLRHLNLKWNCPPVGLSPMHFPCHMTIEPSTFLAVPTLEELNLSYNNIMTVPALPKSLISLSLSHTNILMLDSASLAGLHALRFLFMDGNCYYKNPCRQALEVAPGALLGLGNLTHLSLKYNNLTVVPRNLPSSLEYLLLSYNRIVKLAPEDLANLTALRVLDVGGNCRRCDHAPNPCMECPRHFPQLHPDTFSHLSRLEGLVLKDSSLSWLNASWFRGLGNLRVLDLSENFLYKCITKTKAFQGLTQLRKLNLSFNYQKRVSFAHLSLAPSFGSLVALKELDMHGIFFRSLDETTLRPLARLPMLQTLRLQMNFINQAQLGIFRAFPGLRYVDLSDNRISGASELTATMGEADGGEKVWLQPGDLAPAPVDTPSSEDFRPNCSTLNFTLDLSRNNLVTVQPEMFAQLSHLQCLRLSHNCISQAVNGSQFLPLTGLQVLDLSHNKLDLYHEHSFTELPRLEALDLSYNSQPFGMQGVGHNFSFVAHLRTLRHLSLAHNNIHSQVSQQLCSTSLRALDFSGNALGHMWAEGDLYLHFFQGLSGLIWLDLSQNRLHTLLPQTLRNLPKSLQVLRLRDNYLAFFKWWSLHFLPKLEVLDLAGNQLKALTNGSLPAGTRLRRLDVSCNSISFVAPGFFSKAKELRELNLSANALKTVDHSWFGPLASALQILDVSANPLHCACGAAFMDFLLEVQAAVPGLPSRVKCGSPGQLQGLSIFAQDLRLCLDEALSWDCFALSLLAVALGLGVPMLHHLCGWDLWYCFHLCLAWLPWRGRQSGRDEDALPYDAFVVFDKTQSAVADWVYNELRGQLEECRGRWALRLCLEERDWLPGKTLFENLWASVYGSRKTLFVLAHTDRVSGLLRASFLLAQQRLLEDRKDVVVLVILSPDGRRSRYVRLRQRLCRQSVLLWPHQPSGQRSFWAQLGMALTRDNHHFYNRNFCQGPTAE
- assay.text: TLR9 inhibition reporter assay (HEK-Blue SEAP)
- measurement.parameters: HEK-Blue cells overexpressing human TLR9, stimulated with ODN2006 5 nM, 22 hour incubation
pIC50: −log10 of the molar value.
# pIC50 values compiled below

{"molecule": "Cc1cc2c(N)n[nH]c2cc1-c1cc(C)c2ncnn2c1", "relational.operator": "≤", "pIC50": 4.30}
{"molecule": "COC1CN(C2CCC(c3n[nH]c4cc(-c5cc(C)c6ncnn6c5)c(C(C)C)cc34)CC2)C1 (stereo not drawn) [Example 144]", "relational.operator": "=", "pIC50": 4.88}
{"molecule": "Cc1cc(-c2cc(C)c3ncnn3c2)cc2[nH]nc(OC3CCC(N(C)C)CC3)c12 (single isomer, unassigned) [Example 180]", "relational.operator": "=", "pIC50": 5.49}
{"molecule": "Cc1cc(-c2cc3[nH]nc(C4CCC(N5CCC(S(C)(=O)=O)C5)CC4)c3cc2C(C)C)cn2ncnc12 (single isomer, unassigned) [Example 211]", "relational.operator": "=", "pIC50": 4.49}
{"molecule": "CCc1cc2c(C3CCC(N(C)C)CC3)n[nH]c2cc1-c1cc(C)c2ncnn2c1 (single isomer, unassigned) [Example 93]", "relational.operator": "=", "pIC50": 5.21}
{"molecule": "Cc1cc(-c2ccc3c(C4CCNCC4)c[nH]c3c2)cn2ncnc12", "relational.operator": "=", "pIC50": 6.72}
{"molecule": "CCc1cc2c(C3CCN(Cc4cn(C)nn4)CC3)n[nH]c2cc1-c1cc(C)c2ncnn2c1", "relational.operator": "=", "pIC50": 5.06}
{"molecule": "Cc1cc(-c2cc(C)c3ncnn3c2)cc2[nH]nc(C3CCN(C(=O)CN(C)C)CC3)c12", "relational.operator": "=", "pIC50": 5.72}
{"molecule": "Cc1cc(-c2cc3[nH]nc(C4CCC(N5CC6(C5)CS(=O)(=O)C6)CC4)c3cc2C(C)C)cn2ncnc12 (single isomer, unassigned) [Example 142]", "relational.operator": "=", "pIC50": 5.01}
